MEASURED_METRIC: melting point

Data request: Data request, read-out melting point, for CC(=O)Nc1cccc2c(=O)[nH]c3ccccc3c(=O)c12
Data returned: 270 to 272 °C

Data request: And the next one, COc1cccc2c(NCc3ccccc3)nc(N)nc12 ?
Data returned: 243 to 245 °C

====

The following compounds are shown together with reported melting point values.

Worked examples follow.
compound=CCC(C)(CC)c1nnc(NC(=O)c2c(OC)cccc2OC)[nH]1 reported_result="279 to 280 °C"
compound="CC(C)(C)OC(=O)[C@H](Cc1ccc(O)cc1)NC(=O)C12CC3CC(C(=O)N1Cc1ccccc1)C2C3 (stereo not given in full)" reported_result="298 to 300 °C"
compound=COc1ccc(-c2c(CO)c(CO)c3sc4ccccc4n23)cc1 reported_result="156 to 157 °C"
compound="Cc1ccc(C(C)C)c2c1CC(NNc1ncnc3c1ncn3C1OC(CO)C(O)C1O)CO2 (stereo not given)" reported_result="98 to 101 °C"
compound=Nc1ccc(C2OCCO2)nc1 reported_result="81 to 82 °C"
compound="NC1(c2ccccc2)C(=O)Nc2ccc(Cl)cc21 (stereo not given)" reported_result="230 to 235 °C"
compound=CC(C)COc1ccccc1OCCOS(C)(=O)=O reported_result="59 to 61 °C"
compound=COc1ccc(CC(=O)c2cccs2)cc1 reported_result="77 to 78.4 °C"
compound=CC(C)(C)OC(=O)NCCNC(=O)c1nc(Cl)sc1-c1ccccc1 reported_result="114 to 116 °C"
compound="OC1CCCC(c2ccccc2)O1 (stereo not given)" reported_result="64.5 to 71 °C"

Data request: Data request, read-out melting point, for CC(C)(C)[S@](=O)N1CCCC[C@@H]1c1ccccc1
Data returned: 45 to 50 °C

Data request: And the next one, CCOC(=O)/C=C(C)/C(F)=C/C=C(C)/C=C/c1c(C)cc(C)c(Cl)c1C ?
Data returned: 100 to 104 °C

Data request: And the next one, CCOC(=O)C(=O)c1c[nH]c2cc(OC)ccc12 ?
Data returned: 207 to 208 °C

Data request: And the next one, CCOc1ccccc1N(C(=O)C(N)=O)c1nc(N(CC)CC)nc(N(CC)CC)n1 ?
Data returned: 97 to 100 °C

Data request: And the next one, O=C(O)c1sc(C(F)(F)F)cc1OCc1ccccc1 ?
Data returned: 142 to 144 °C

====

The following compounds are shown together with reported melting point values.

Worked examples follow.
compound="CCOC(=O)CC(c1ccccc1)N(N)C(=O)c1cc(C(=O)OCc2ccccc2)ccc1OCCOC (racemic)" reported_result="139 to 140 °C"
compound=CCN(CC)CCNc1ccc(CN(C)S(=O)(=O)CC)c2sc3ccccc3c(=O)c12 reported_result="159 to 161 °C"
compound="Cc1ccc2c(c1)C(N(CCCCC(=O)O)S(C)(=O)=O)CC(C)(C)O2 (stereo unspecified)" reported_result="190 to 195 °C"
compound=Oc1ccc(N2CCSCC2)cc1 reported_result="156 to 158 °C"
compound=CC(=O)Oc1c(Sc2ccccc2)sc2ccccc12 reported_result="88 to 90 °C"
compound=Cc1nc[nH]c1CSCCN=C(NC#N)NCCCc1c[nH]cn1 reported_result="140 to 142 °C"
compound=COc1cc(C(=O)Nc2c(Cl)cc3cn[nH]c3c2C(=O)NC2(C)CSC2)n(-c2ncccc2Cl)n1 reported_result="162 to 165 °C"
compound=O=C(O)c1ccc(COCc2csc3nc(C(=O)NCc4ccc(F)c(C(F)(F)F)c4)[nH]c(=O)c23)cc1 reported_result="258 to 259 °C"
compound=CCCCCCOc1ccc(C(=O)NCCN(O)C(N)=O)cc1 reported_result="148 to 151 °C"
compound=O=c1[nH]c2ccc(Cn3ccnc3)cc2[nH]1 reported_result="254 °C"

Next, consider the following compound.
Data request: Data request, read-out melting point, for CCOC(=O)c1nc(-c2ccc(Cl)cc2Cl)c(-c2ccc(Cl)cc2)s1
Data returned: 117 to 118 °C

====

The following molecules are shown together with reported melting point values.

molecule="COc1cccc(C2=C(C#N)C(c3cccc4nonc34)c3c[nH]nc3N2)c1 (stereo unspecified)" reported_result="198 °C"
molecule=c1ccc2c3c([nH]c2c1)CNCC3 reported_result="190 to 191 °C"
molecule=COCc1ccc(CCCOc2c(C)cc(-c3noc(C(F)(F)F)n3)cc2C)cn1 reported_result="50 to 53 °C"
molecule=CCCOCCOc1ccccc1COc1ccc2c(c1)C=C(C(=O)Nc1ccc(CN(C)C3CCOCC3)cc1)CCS2(=O)=O reported_result="136 to 138 °C"
molecule=Cc1c(-c2ccccc2)nn(C)c1C(=O)O reported_result="161 to 163 °C"

Data request: Data request, read-out melting point, for CCCCc1cn(Cc2ccc(-c3ccccc3C(=O)O)cc2)c2ccccc2c1=O
Data returned: 214 °C

====

MEASURED_METRIC: melting point

Data request: Data request, read-out melting point, for Nc1cc(C2CC2)nn1C(=O)Nc1ccccc1
Data returned: 97 to 99 °C

Data request: And the next one, O=C(O)c1ccc2c([N+](=O)[O-])c(O)c(O)cc2c1 ?
Data returned: > 310 °C

Data request: And the next one, Cc1cc(-c2cccc(-c3ccc(C4(O)C5CCC4CN(Cc4ccccc4)C5)cc3)n2)c(C)[nH]1 (configuration not stated) ?
Data returned: 58 to 68 °C

Data request: And the next one, Clc1ccc(C2(Cn3ccnc3)OCC(CCc3ccccc3)O2)c(Cl)c1 (configuration not stated) ?
Data returned: 118 °C

Data request: And the next one, CCOC(=O)c1c(Cn2nccn2)nc2cc(OC)c(OC)cc2c1-c1ccc(OC)c(OC)c1 ?
Data returned: 163 to 164 °C

Data request: And the next one, CC(C)(C)SC1N(C(C(=O)OCc2ccc([N+](=O)[O-])cc2)C(=O)C(C)(C)C)C(=O)C1(C)C (configuration not stated) ?
Data returned: 87.5 to 90.5 °C

Data request: And the next one, CC1(C2CCCC2)Cc2cc(OCC(=O)O)c(Cl)c(Cl)c2C1=NO (configuration not stated) ?
Data returned: 230 °C

Data request: And the next one, O=S(=O)(N[C@H]1CC[C@H](CCN2CCN(c3nccc4c3CCO4)CC2)CC1)c1ccc(F)cc1 ?
Data returned: 221 °C

Data request: And the next one, CCCCc1nc(SC)c(C(=O)OCC)n1Cc1ccc(-c2ccc(S(=O)(=O)NC#N)cc2)cc1 ?
Data returned: 244 °C

Data request: And the next one, CC(C(=O)O)c1ccc2onc(-c3ccc(Cl)cc3)c2c1 (configuration not stated) ?
Data returned: 137 to 139 °C

Data request: And the next one, COc1cc(CSc2ccc(O)cc2)cc(O)c1O ?
Data returned: 140 °C

Data request: And the next one, COc1ccc(S(=O)(=O)Nc2ccccc2NC(=O)c2cccnc2C)cc1 ?
Data returned: 148 to 149 °C

Data request: And the next one, CN(c1ccc(O)cc1)c1nc2ccccc2[nH]1 ?
Data returned: > 260 °C

Data request: And the next one, Clc1ccc2c(c1)C(c1ccccc1)NC1=NCCN12 (configuration not stated) ?
Data returned: 210 to 213 °C

Data request: And the next one, CCC(CC)(COc1nn2nc(C)nc2cc1C)CS(N)(=O)=O ?
Data returned: 221 to 222 °C

Data request: And the next one, CCC=C1SC(=O)N(CCCCOc2cccn3ccnc23)C1=O ?
Data returned: 70 to 71 °C

Data request: And the next one, Cc1nccn1-c1cccc(-n2cnc3cc(-c4ccoc4)ccc32)c1 ?
Data returned: 105 to 107 °C

====

MEASURED_METRIC: melting point

Worked examples follow.
compound=c1ccc(-n2c3ccccc3c3cc(-n4ccnc4-c4nccn4-c4ccc5c(c4)c4ccccc4n5-c4ccccn4)ccc32)nc1 reported_result="215 to 227 °C"
compound=O=C(Nc1ccc(F)c(F)c1)c1cc(-c2ccc(F)cc2F)ccc1O reported_result="231 to 232 °C"

Data request: Data request, read-out melting point, for CCC1(C)SC(=NOC(=O)NC)N=C1C (configuration not stated)
Data returned: 115 to 117 °C

Data request: And the next one, O=C(OC(=O)c1cccnc1)c1cccnc1 ?
Data returned: 162 to 164 °C

Data request: And the next one, CCN1C(=O)C(C)(C)C(=O)N(C)c2cc(CCN(CCn3ccc4oc(C)cc4c3=O)Cc3cc(C)nn3C)ccc21 ?
Data returned: 134 to 140 °C

====

The following molecules are shown together with reported melting point values.

Worked examples follow.
molecule="CCC12CCC3C4CCC(OC)=CC4=CCC3C1C(OC(C)=O)CC2=O (centres undefined)" measured_metric="melting point" reported_result="190 °C"
molecule=CN(C)Cc1cccc(OCCCNc2nc(N=Cc3ccncc3)nn2C)c1 measured_metric="melting point" reported_result="127 to 128 °C"
molecule=COc1cc(NC(C)=O)c([N+](=O)[O-])cc1C(=O)O measured_metric="melting point" reported_result="186 to 188 °C"
molecule=CS(=O)(=O)OCCN(CCOS(C)(=O)=O)c1cc(C(=O)O)c([N+](=O)[O-])cc1[N+](=O)[O-] measured_metric="melting point" reported_result="200 to 210 °C"
molecule="CC(=O)OCC1OC(n2c(Cl)nc3cc(Cl)ccc32)C(OC(C)=O)C1OC(C)=O (centres undefined)" measured_metric="melting point" reported_result="98 to 100 °C"

Data request: Data request, read-out melting point, for O=C(CCCN1CCOCC1)c1ccc2c(c1)C(=O)c1cc(C(=O)CCCN3CCOCC3)ccc1-2
Data returned: 174 to 176 °C

Data request: And the next one, CC1=Nc2ccccc2CC(c2ccc(C)s2)N1C (centres undefined) ?
Data returned: 139 to 140 °C

Data request: And the next one, Cc1cccc(-c2ccc3c(c2)c2c(n3Cc3ccc(C(C)(C)C)cc3)COC(=O)C2=O)c1 ?
Data returned: 196 to 197 °C

Data request: And the next one, COc1cc(OC)c(-c2cc3ccccc3s2)cc1/C=C/C(=O)c1ccc(C(=O)NCC(F)(F)F)cc1 ?
Data returned: 215 to 217 °C

Data request: And the next one, Nc1c(NCCCO)c(=O)c1=O ?
Data returned: 256 to 258 °C

Data request: And the next one, COCCOc1ccc(C=O)c(O)c1 ?
Data returned: 64.5 to 65.5 °C

Data request: And the next one, CCn1cc(C(=O)O)c(=O)c2cc(F)c(N)nc21 ?
Data returned: 299 to 303 °C

Data request: And the next one, O=C1NCCN1C(c1ccccc1)c1ccccc1 ?
Data returned: 200 to 202 °C

Data request: And the next one, O=S(=O)(C=Cc1ccccc1)N1CCc2c([nH]c3ccccc23)C1c1ccc2c(c1)OCO2 (centres undefined) ?
Data returned: 191 to 192 °C

Data request: And the next one, O=c1oc(-c2ccccc2)cc(O)c1SCc1cccc(OCc2ccccc2)c1 ?
Data returned: 140 to 141 °C
